The values you see were collected from patent US20210206877A1.

molecular target: BACE1 endogenous to primary cortical neurons from E16.5 CD1 mice (mouse, UniProt P56818 46-501); test: cell-based or functional assay
Sequence (P56818 46-501): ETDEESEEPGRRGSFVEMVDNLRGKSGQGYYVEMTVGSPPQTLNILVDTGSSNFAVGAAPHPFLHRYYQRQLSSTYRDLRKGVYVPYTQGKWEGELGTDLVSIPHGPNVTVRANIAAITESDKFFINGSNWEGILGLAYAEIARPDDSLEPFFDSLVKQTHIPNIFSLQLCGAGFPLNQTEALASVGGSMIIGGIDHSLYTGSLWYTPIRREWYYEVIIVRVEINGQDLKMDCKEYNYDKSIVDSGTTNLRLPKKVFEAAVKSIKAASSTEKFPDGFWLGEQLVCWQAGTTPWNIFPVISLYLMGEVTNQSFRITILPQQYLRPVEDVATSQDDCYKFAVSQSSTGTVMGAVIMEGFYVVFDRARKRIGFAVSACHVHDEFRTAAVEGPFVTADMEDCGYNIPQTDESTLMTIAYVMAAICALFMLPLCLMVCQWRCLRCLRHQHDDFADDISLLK
Can you tell me max % inhibition, Abeta x-40 in mouse cortical neurons for the items I'm about to list?
Report the figure in % without appending any unit label.

Please report max % inhibition, Abeta x-40 in mouse cortical neurons for the following binder: 6298 (antibody, V domains shown) VH: QLQLQESGPGLVKPSETLSLTCTVSGGSISWSSYYWSWIRQPPGKGLEWIGNIYYSGSTYYNPSLKSRVTISVDTSKNQFSLKLSSVTAADTAVYYCARLGHGYNYFDLWGRGTLVTVSS VL: EIVLTQSPATLSLSPGERATLSCRASQSVSSYLAWFQQKPGQAPRLLIYDASNRATGIPARFSGSGSGTDFTLTISSLEPEDFAVYYCQQVYVWPPRTFGGGTKVEIK
67

Please report max % inhibition, Abeta x-40 in mouse cortical neurons for the following binder: 6293 (antibody, V domains shown) VH: QLQLQESGPGLVKPSETLSLTCTVSGGSISSSSYYWGWIRQPPGKGLEWIGMIYYSGSTWYNPSLRSRVTISVDTSKNQFSLKLSSVTAADTAVYYCARVGHGVSYFDLWGRGTLVTVSS VL: EIVLTQSPATLSLSPGERATLSCRASQSVSSYLAWYQQKPGQAPRLLIYDASKRATGIPARFSGSGSGTDFTLTISSLEPEDFAVYYCQQVYTWPPRTFGGGTKVEIK
75

Please report max % inhibition, Abeta x-40 in mouse cortical neurons for the following binder: 6272 (antibody, V domains shown) VH: QVQLVQSGAEVKKPGSSVKVSCKASGGTFSGYGISWVRQAPGQGLEWMGNIIPGFGTANYAQKFQGRVTITADESTSTAYMELSSLRSEDTAVYYCARSGGTKYGMLDVWGQGTMVTVSS VL: EIVMTQSPATLSVSPGERATLSCRASQSVSSNLAWYQQKPGQAPRLLIYGASTRATGIPARFSGSGSGTEFTLTISSLQSEDFAVYYCQQLFLWPPRTFGGGTKVEIK
82

Please report max % inhibition, Abeta x-40 in mouse cortical neurons for the following binder: 6285 (antibody, V domains shown) VH: QLQLQESGPGLVKPSETLSLTCTVSGGSTSSSSYYWGWIRQPPGKGLEWIGSIYRSGSTYYNPSLKSRVTISVDTSKNQFSLKLSSVTAADTAVYYCARVGHGISYFDLWGRGTLVTVSS VL: EIVLTQSPATLSLSPGERATLSCRASQSVSSYLAWYQQKPGQAPRLLIYDASSRATGIPARFSGSGSGTDFTLTISSLEPEDFAVYYCQQSLTWPPRTFGGGTKVEIK
57

Please report max % inhibition, Abeta x-40 in mouse cortical neurons for the following binder: 5905 (antibody, V domains shown) VH: QLQLQESGPGLVKPSETLSLTCTVSGGSISWSSYYWSWIRQPPGKGLEWIGSIYRSGRTYYNPSLKSRVTISVDTSKNQFSLKLSSVTAADTAVYYCARVGHGISYFDLWGRGTLVTVSS VL: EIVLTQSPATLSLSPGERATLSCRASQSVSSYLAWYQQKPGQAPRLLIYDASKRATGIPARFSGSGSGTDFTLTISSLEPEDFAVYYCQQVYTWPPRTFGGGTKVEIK
65

Please report max % inhibition, Abeta x-40 in mouse cortical neurons for the following binder: 5990 (antibody, V domains shown) VH: QLQLQESGPGLVKPSETLSLTCTVSGGSISWSSYYWSWIRQPPGKGLEWIGSIYRSGRTYYNPSLKSRVTISVDTSKNQFSLKLSSVTAADTAVYYCARVGHGINYFDLWGRGTLVTVSS VL: EIVLTQSPATLSLSPGERATLSCRASRSVNSYLAWYQQKPGQAPRLLIYDASKRATGIPARFSGSGSGTDFTLTISSLEPEDFAVYYCQQVYTWPPRTFGGGTKVEIK
61

Please report max % inhibition, Abeta x-40 in mouse cortical neurons for the following binder: 6288 (antibody, V domains shown) VH: QLQLQESGPGLVKPSETLSLTCTVSGGSTSSSSYYWGWIRQPPGKGLEWIGSIYRSGSTYYNPSLRSRVTISVDTSKNQFSLKLSSVTAADTAVYYCARVGHGISYFDLWGRGTLVTVSS VL: EIVLTQSPATLSLSPGERATLSCRASQSVSSYLAWYQQKPGQAPRLLIYDASNRATGIPARFSGSGSGTDFTLTISSLEPEDFAVYYCQQSLTWPPRTFGGGTKVEIK
67

Please report max % inhibition, Abeta x-40 in mouse cortical neurons for the following binder: 6297 (antibody, V domains shown) VH: QLQLQESGPGLVKPSETLSLTCTVSGGPISSSSYYWGWIRQPPGKGLEWIGNIYYSGSTYYNPSLRGRVTISVDTSKNQFSLKLSSVTAADTAVYYCARLGHGYNYFDLWGRGTLVTVSS VL: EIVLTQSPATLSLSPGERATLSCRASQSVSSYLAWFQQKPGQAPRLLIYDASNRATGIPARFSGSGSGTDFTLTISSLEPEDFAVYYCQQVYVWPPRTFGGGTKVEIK
63

Please report max % inhibition, Abeta x-40 in mouse cortical neurons for the following binder: 6276 (antibody, V domains shown) VH: QVQLVQSGAEVKKPGSSVKVSCKASGGTFRGYAISWVRQAPGQGLEWMGNIIPGLSTANYAQKFQGRVTITADESTSTAYMELSSLRSEDTAVYYCARSGGTKYGMLDVWGQGTMVTVSS VL: EIVMTQSPATLSVSPGERATLSCRASQSVSSNLAWYQQKPGQAPRLLIYGASTRATGIPARFSGSGSGTEFTLTISSLQSEDFAVYYCQQLILWPPRTFGGGTKVEIK
81

Please report max % inhibition, Abeta x-40 in mouse cortical neurons for the following binder: 6274 (antibody, V domains shown) VH: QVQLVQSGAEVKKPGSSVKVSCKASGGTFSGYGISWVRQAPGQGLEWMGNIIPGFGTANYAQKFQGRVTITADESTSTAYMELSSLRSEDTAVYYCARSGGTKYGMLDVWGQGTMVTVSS VL: EIVMTQSPATLSVSPGERATLSCRASQSVSSHLAWYQQKPGQAPRLLIYGASTRATGIPARFSGSGSGTEFTLTISSLQSEDFAVYYCQQLILWPPRTFGGGTKVEIK
85
